Tested on: V79
Experiment: Differential hypoxic cytotoxicity towards chinese hamster cells (V79) using MTT assay under aerobic conditions
Assay type: functional, cell-based
Settings: Cricetulus griseus
readoutLabel: IC50 (µM)
Give bare numbers, in µM.

// solved cases for IC50 follow
- structureSmilesString: "CCCCCCCCn1c2nc(=O)n(-c3ccccc3)c(=O)c-2cc2ccc([N+](=O)[O-])cc21"
  displayUnit: "µM"
  IC50: 6.1
- structureSmilesString: "CCCCCCCCCCCCn1c2nc(=O)n(C)c(=O)c-2cc2ccc([N+](=O)[O-])cc21"
  displayUnit: "µM"
  IC50: 130
- structureSmilesString: "CCCCCCCCCCCCn1c2nc(=O)n(C)c(=O)c-2cc2c([N+](=O)[O-])cccc21"
  displayUnit: "µM"
  IC50: 7.2
- structureSmilesString: "CCCCCCCCCCCCn1c2nc(=O)[nH]c(=O)c-2cc2c([N+](=O)[O-])cccc21"
  displayUnit: "µM"
  IC50: 4.3

// below: IC50 requested for another compound
What IC50 appears in the records for this compound with V79? "CCCCCCCCCCCCn1c2nc(=O)[nH]c(=O)c-2cc2cc([N+](=O)[O-])ccc21"
16

###

Tested on: V79
Experiment: Differential hypoxic cytotoxicity towards chinese hamster cells (V79) using MTT assay under aerobic conditions
Format: functional, cell-based
Conditions: Cricetulus griseus
readoutLabel: pIC50
One number for each entry, as −log10 of the molar value.

// solved cases for pIC50 follow
- structureSmilesString: "CCCCCCCCCCCCn1c2nc(=O)[nH]c(=O)c-2cc2ccc([N+](=O)[O-])cc21"
  target: "V79"
  readoutLabel: "pIC50"
  obsValue: 3.52
- structureSmilesString: "CCCCCCCCn1c2nc(=O)n(-c3ccccc3)c(=O)c-2cc2cc([N+](=O)[O-])ccc21"
  target: "V79"
  readoutLabel: "pIC50"
  obsValue: 4.57
- structureSmilesString: "CCCCCCCCCCCCn1c2nc(=O)[nH]c(=O)c-2cc2cccc([N+](=O)[O-])c21"
  target: "V79"
  readoutLabel: "pIC50"
  obsValue: 5.72
- structureSmilesString: "CCCCCCCCn1c2nc(=O)n(-c3ccccc3)c(=O)c-2cc2c([N+](=O)[O-])cccc21"
  target: "V79"
  readoutLabel: "pIC50"
  obsValue: 5.44
- structureSmilesString: "CCCCCCCCn1c2nc(=O)n(-c3ccccc3)c(=O)c-2cc2cccc([N+](=O)[O-])c21"
  target: "V79"
  readoutLabel: "pIC50"
  obsValue: 5.77

// below: pIC50 requested for another molecule
# get_value(readout='pIC50', item= "NC(=O)N/N=C/c1ccc([N+](=O)[O-])o1" )
3.13
